Origin of measurements: patent US20240415819A1

System: HT-29 cells
ASSAY OVERVIEW: CellTiter-Glo luminescent cell viability assay with HT-29 cells (72h incubation)
Type: cell-based, human
CONDITION LABEL: Homo sapiens, HT-29, HT29 cells, read-out: CTG HT29
pIC50: −log10 of the molar value.
Measured pIC50 values are reported for all entries that follow.

Cc1ccc2cc1CNC(=O)[C@H](CCc1ccccc1)NC(=O)[C@@H](NC(=O)OCc1ccccc1)CC(=O)N1CC(CCO2)CCC1C (some centres unmarked) : > 7.00
Cc1ccc2cc1CNC(=O)[C@H](CCc1ccccc1)NC(=O)[C@@H](NC(=O)OCc1ccccc1)CC(=O)N(C)CCO2 : 6.30 to 7.00
Cc1ccc2cc1CNC(=O)[C@H](CCc1ccccc1)NC(=O)[C@@H](NC(=O)Cc1ccc(N)cc1)CC(=O)N1CCCC(CCO2)C1 (some centres unmarked) : > 7.00
CCC(CC)(CO)C(=O)N[C@H]1CC(=O)N2CCCC(CCOc3ccc(C)c(c3)CNC(=O)[C@H](CCc3ccccc3)NC1=O)C2 (some centres unmarked) : > 7.00
COc1cccc(CC(=O)N[C@H]2CC(=O)N3CCCC(CCOc4ccc(C)c(c4)CNC(=O)[C@H](CCc4ccccc4)NC2=O)C3)c1 (some centres unmarked) : > 7.00
Cc1ccc2cc1CNC(=O)[C@H](CCc1ccccc1)NC(=O)[C@@H](NC(=O)c1ccccc1)CC(=O)N1CCCC(CCO2)C1 (some centres unmarked) : > 7.00
CC(=O)N[C@H]1CCC(=O)N(C)CCCCOc2ccc(C)c(c2)CNC(=O)[C@H](CCc2ccccc2)NC1=O : 6.30 to 7.00
Cc1ccc2cc1CNC(=O)[C@H](CCc1ccccc1)NC(=O)[C@@H](NC(=O)OCc1ccccc1)CCC(=O)N1CCC(CO2)C1 (some centres unmarked) : 6.30 to 7.00
CC(=O)N[C@H]1CC(=O)N2CCCC(CCOc3ccc(C)c(c3)CNC(=O)C(CCc3cnccn3)NC1=O)C2 (some centres unmarked) : > 7.00
CC(=O)N[C@H]1CCC(=O)N2CCOC(CCOc3ccc(C)c(c3)CNC(=O)[C@H](CCc3ccccc3)NC1=O)C2 (some centres unmarked) : 6.30 to 7.00

pIC50 measured on Cc1ccc2cc1CNC(=O)[C@H](CCc1ccccc1)NC(=O)[C@@H](NC(=O)OCc1ccccc1)CC(=O)N1CC(CCO2)CC2CCCCC21 (some centres unmarked) = > 7.00

pIC50 measured on CC(=O)N[C@H]1CC(=O)N2CCCC(CCOc3ccc(C)c(c3)CNC(=O)C(c3cnn(CCC(=O)O)c3)NC1=O)C2 (some centres unmarked) = 6.30 to 7.00
